# Tested on: Wild Buckwheat
# test.protocol: Pre-emergent herbicidal activity (Table A)
# Format: in vivo
# conditions.used: Fallopia convolvulus, pre-emergence, Wibw, 11.2 kg/ha, 10-14 days, read-out: herbicidal rating (% inhibition)
Provide the recorded inhibition at 11200 g/ha for the entries that follow.

Look up inhibition at 11200 g/ha of COC(=O)c1c(OC)nc(C(F)(F)F)c(C(=O)n2ccc(F)n2)c1CC(C)C and report it.
75 to 100%

Look up inhibition at 11200 g/ha of COC(=O)c1c(OC)nc(C(F)(F)F)c(C(=O)n2cc(NC(C)=O)cn2)c1CC(C)C and report it.
50 to 74%

Look up inhibition at 11200 g/ha of COC(=O)c1c(OC)nc(C(F)(F)F)c(C(=O)SC)c1C1CCC1 and report it.
75 to 100%

Look up inhibition at 11200 g/ha of COc1nc(C(F)(F)F)c(C(=O)Cl)c(CC(C)C)c1C(=O)SC and report it.
0 to 24%

Look up inhibition at 11200 g/ha of COC(=O)c1c(OC)nc(C(F)(F)F)c(C(=O)NCCCBr)c1CC(C)C and report it.
50 to 74%

Look up inhibition at 11200 g/ha of COC(=O)c1c(OC)nc(C(F)(F)F)c(C2=NCCCO2)c1CC(C)C and report it.
25 to 49%

Look up inhibition at 11200 g/ha of COC(=O)c1c(OC)nc(C(F)(F)F)c(C=O)c1C1CCC1 and report it.
75 to 100%

Look up inhibition at 11200 g/ha of COC(=O)c1c(OC)nc(C(F)(F)F)c(C(=O)NNC(C)=O)c1CC(C)C and report it.
0 to 24%

Look up inhibition at 11200 g/ha of COC(=O)c1c(OC)nc(C(F)(F)F)c(C2OCC(=O)O2)c1CC(C)C (stereo not drawn) and report it.
75 to 100%

Look up inhibition at 11200 g/ha of COc1nc(C(F)(F)F)c(C=O)c(CC(C)C)c1C(=O)SC and report it.
25 to 49%

Look up inhibition at 11200 g/ha of COC(=O)c1c(OC)nc(C(F)(F)F)c(C(=O)n2cncn2)c1C1CCC1 and report it.
75 to 100%

Look up inhibition at 11200 g/ha of COC(=O)c1c(OC)nc(C(F)(F)F)c(-c2ncco2)c1CC(C)C and report it.
75 to 100%

Look up inhibition at 11200 g/ha of COc1nc(C(F)(F)F)c(C2OCCCO2)c(CC(C)C)c1C(=O)SC and report it.
75 to 100%

Look up inhibition at 11200 g/ha of COC(=O)c1c(OC)nc(C(F)(F)F)c(C2SCCCS2)c1CC(C)C and report it.
75 to 100%

Look up inhibition at 11200 g/ha of COC(=O)c1c(OC)nc(C(F)(F)F)c(C2OCCS2)c1CC(C)C (stereo not drawn) and report it.
75 to 100%

Look up inhibition at 11200 g/ha of COC(=O)c1c(OC)nc(C(F)(F)F)c(-c2nccs2)c1CC(C)C and report it.
75 to 100%

Look up inhibition at 11200 g/ha of COC(=O)c1c(OC)nc(C(F)(F)F)c(C(=O)OCC(F)(F)F)c1CC(C)C and report it.
75 to 100%

Look up inhibition at 11200 g/ha of COC(=O)c1c(OC)nc(C(F)(F)F)c(C=O)c1CC1CC1 and report it.
50 to 74%

Data credit: patent US5391540A
